Origin of the recorded values: paper PMC12951562

target of assay: SH2D6 (Homo sapiens)
Construct: made in house; host or cells: HEK293 (transient transfection), unpurified extract
Sequence (Q7Z4S9 whole entry): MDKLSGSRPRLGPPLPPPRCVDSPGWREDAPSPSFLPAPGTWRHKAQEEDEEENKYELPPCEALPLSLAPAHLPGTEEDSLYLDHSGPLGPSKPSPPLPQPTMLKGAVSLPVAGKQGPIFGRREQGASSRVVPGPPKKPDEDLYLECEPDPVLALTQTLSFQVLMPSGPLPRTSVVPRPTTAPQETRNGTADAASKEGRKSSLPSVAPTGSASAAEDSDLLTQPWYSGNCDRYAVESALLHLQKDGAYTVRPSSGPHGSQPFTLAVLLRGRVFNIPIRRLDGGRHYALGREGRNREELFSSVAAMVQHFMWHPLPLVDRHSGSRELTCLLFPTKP
assay comment: biochemical
Assay type: binding
settings: primary screen, 10 μM; read-out: percent of DMSO vehicle control
measurement kind: remaining activity at 10 µM (%)
Reply numerically in %, unit not repeated.

O=C(COc1ccc2cc(C(=O)Nc3ccccc3)ccc2c1)NCc1ccc(OP(=O)(O)O)c(OP(=O)(O)O)c1 88.5
O=C(CCl)Nc1cccc(CNC(=O)[C@H](Cc2ccc(OP(=O)(O)O)cc2)NC(=O)Cc2ccc(F)cc2)c1 93.6
C/C(=C\C(=O)N[C@H](C(=O)N1CCC[C@H]1C(=O)N(c1ccccc1)c1ccc(I)cc1)C(C)(C)C)c1ccc(OP(=O)(O)O)cc1 67.5

**Q:** For the record `CC(C)(C)[C@H](NC(=O)/C=C/c1ccc(OP(=O)(O)O)cc1)C(=O)N1CCC[C@H]1C(=O)N(c1ccccc1)c1ccc(I)cc1` , what value of remaining activity at 10 µM is listed for SH2D6 (Homo sapiens)?
**A:** 97.5

---

target of assay: STAT3(Y640F)-nonphosphorylated (Homo sapiens, UniProt P40763, Y640F)
Construct: made in house; host or cells: HEK293 (transient transfection), unpurified extract, dephosphorylated by endogenous phosphatases
Sequence (P40763 whole entry Y640F): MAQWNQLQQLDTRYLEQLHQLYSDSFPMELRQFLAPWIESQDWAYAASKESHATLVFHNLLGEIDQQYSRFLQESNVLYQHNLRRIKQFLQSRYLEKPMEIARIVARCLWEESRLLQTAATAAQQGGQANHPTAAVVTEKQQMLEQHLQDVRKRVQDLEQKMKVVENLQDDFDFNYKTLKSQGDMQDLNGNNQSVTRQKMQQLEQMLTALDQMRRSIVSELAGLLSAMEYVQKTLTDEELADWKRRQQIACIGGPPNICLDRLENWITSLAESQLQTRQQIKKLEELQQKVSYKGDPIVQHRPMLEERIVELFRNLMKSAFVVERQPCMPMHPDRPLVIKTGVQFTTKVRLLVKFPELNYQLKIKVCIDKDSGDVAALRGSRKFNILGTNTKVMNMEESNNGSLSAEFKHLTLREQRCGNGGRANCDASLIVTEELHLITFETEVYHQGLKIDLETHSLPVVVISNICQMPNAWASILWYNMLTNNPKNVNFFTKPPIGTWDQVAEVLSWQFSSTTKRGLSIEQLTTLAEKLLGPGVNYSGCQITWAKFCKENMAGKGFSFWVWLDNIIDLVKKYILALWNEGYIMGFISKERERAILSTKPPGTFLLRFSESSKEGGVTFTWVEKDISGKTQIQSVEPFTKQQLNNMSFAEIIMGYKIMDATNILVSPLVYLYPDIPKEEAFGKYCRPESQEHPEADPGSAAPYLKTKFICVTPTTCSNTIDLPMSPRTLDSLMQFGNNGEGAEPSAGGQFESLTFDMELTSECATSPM
assay comment: biochemical
Format: binding
settings: dose-response; read-out: KD
Kd reference

CC(C)(C)[C@H](NC(=O)/C=C/c1ccc(OP(=O)(O)O)cc1)C(=O)N1CCC[C@H]1C(=O)N(c1ccccc1)c1ccc(I)cc1 95 nM

Turning now to a further compound:
**Q:** I would be grateful if you could share the reported Kd for `C/C(=C\C(=O)N[C@H](C(=O)N1CCC[C@H]1C(=O)N(c1ccccc1)c1ccc(I)cc1)C(C)(C)C)c1ccc(OP(=O)(O)O)cc1` .
**A:** 102 nM

---

percent of DMSO vehicle control at 10 µM reference
target of assay: FYN (Homo sapiens)
Construct: the DNA-tagged SH2 domain concentrations used in this study were <0.1 nM; made in house; host or cells: HEK293 (transient transfection; unpurified extract)
Sequence (P06241 149-246 limits assumed): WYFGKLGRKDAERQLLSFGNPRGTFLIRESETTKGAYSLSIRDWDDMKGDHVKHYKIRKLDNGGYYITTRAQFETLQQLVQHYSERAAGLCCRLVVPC
assay comment: biochemical
Assay type: binding
settings: read-out: percent of DMSO vehicle control
Non-standard residues stand in square brackets, D forms with d. Residues, ends and D or L forms follow the SMILES beside them. *: point of attachment. pY = N[C@@H](Cc1ccc(OP(=O)(O)O)cc1)C(=O)O; Caffeoyl = O=C(/C=C/c1ccc(O)c(O)c1)*

Use these answered entries as a reference point.
molecule	measurement kind	assay result
NC(=O)CC[C@H](NC(=O)[C@@H]1CC[C@@H]2CCN(C(=O)CCCCCC#Cc3cccc4c3CN(C3CCC(=O)NC3=O)C4=O)C[C@H](NC(=O)c3cc4cc(C(F)(F)P(=O)(O)O)ccc4[nH]3)C(=O)N21)C(=O)NC(c1ccccc1)c1ccccc1 (stereo partly shown)	percent of DMSO vehicle control at 10 µM	106%
CC(=O)N1CC[C@H]2CC[C@@H](C(=O)N[C@@H](CCC(N)=O)C(=O)NC(c3ccccc3)c3ccccc3)N2C(=O)[C@@H](NC(=O)c2cc3cc(C(F)(F)P(=O)(O)O)ccc3[nH]2)C1	percent of DMSO vehicle control at 10 µM	97.3%
CC[C@H](C)[C@H](NC(=O)[C@H](CCC(=O)O)NC(=O)[C@H](CCC(=O)O)NC(=O)[C@H](Cc1ccc(OP(=O)(O)O)cc1)NC(=O)/C=C/c1ccc(O)c(O)c1)C(=O)N[C@@H](CCC(=O)O)C(=O)O [Caffeic acid-pYEEIE] (Caffeoyl-[pY]EEIE-OH)	percent of DMSO vehicle control at 10 µM	0%

Turning now to a further molecule:
**Q:** I would be grateful if you could share the reported percent of DMSO vehicle control at 10 µM for `CC(=O)N[C@@H](Cc1ccc(CP(=O)(O)O)cc1)C(=O)NC1(C(=O)N[C@@H](CC(N)=O)C(=O)NCCCc2c(O)ccc3ccccc23)CCCCC1` .
**A:** 53.7%

---

target of assay: SLP76 (Homo sapiens, UniProt Q13094)
Construct: made in house; host or cells: HEK293 (transient transfection), unpurified extract
Sequence (Q13094 whole entry): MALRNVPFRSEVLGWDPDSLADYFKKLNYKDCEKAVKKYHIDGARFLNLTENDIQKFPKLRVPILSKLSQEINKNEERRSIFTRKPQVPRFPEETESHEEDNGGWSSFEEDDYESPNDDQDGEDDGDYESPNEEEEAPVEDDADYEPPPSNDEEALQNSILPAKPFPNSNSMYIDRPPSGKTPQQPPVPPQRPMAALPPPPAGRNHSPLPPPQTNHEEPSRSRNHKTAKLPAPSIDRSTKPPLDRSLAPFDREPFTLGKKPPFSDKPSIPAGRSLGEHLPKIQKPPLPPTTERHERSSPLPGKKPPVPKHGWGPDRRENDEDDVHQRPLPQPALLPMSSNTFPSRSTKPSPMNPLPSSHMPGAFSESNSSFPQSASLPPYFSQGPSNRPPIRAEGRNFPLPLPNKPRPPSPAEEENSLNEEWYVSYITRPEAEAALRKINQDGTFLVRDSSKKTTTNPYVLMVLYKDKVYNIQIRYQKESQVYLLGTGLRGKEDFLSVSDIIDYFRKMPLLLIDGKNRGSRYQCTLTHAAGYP
assay comment: biochemical
Assay type: binding
settings: read-out: percent of DMSO vehicle control
Non-standard residues stand in square brackets, D forms with d. Residues, ends and D or L forms follow the SMILES beside them. *: point of attachment. pY = N[C@@H](Cc1ccc(OP(=O)(O)O)cc1)C(=O)O; Caffeoyl = O=C(/C=C/c1ccc(O)c(O)c1)*
measurement kind: remaining activity at 10 µM (%)
Reply numerically in %, unit not repeated.

Use these answered entries as a reference point.
compound	remaining activity at 10 µM, %
CC[C@H](C)[C@H](NC(=O)[C@H](CCC(=O)O)NC(=O)[C@H](CCC(=O)O)NC(=O)[C@H](Cc1ccc(OP(=O)(O)O)cc1)NC(=O)/C=C/c1ccc(O)c(O)c1)C(=O)N[C@@H](CCC(=O)O)C(=O)O [Caffeic acid-pYEEIE] (Caffeoyl-[pY]EEIE-OH)	99.6
CC(=O)N1CC[C@H]2CC[C@@H](C(=O)N[C@@H](CCC(N)=O)C(=O)NC(c3ccccc3)c3ccccc3)N2C(=O)[C@@H](NC(=O)c2cc3cc(C(F)(F)P(=O)(O)O)ccc3[nH]2)C1	61.9
NC(=O)CC[C@H](NC(=O)[C@@H]1CC[C@@H]2CCN(C(=O)CCCCCC#Cc3cccc4c3CN(C3CCC(=O)NC3=O)C4=O)C[C@H](NC(=O)c3cc4cc(C(F)(F)P(=O)(O)O)ccc4[nH]3)C(=O)N21)C(=O)NC(c1ccccc1)c1ccccc1 (stereo partly shown)	66.5

**Q:** For the record `CC(=O)N[C@@H](Cc1ccc(CP(=O)(O)O)cc1)C(=O)NC1(C(=O)N[C@@H](CC(N)=O)C(=O)NCCCc2c(O)ccc3ccccc23)CCCCC1` , what value of remaining activity at 10 µM is listed for SLP76 (Homo sapiens, UniProt Q13094)?
**A:** 44.1

---

target of assay: SHC3 (Homo sapiens, UniProt Q92529)
Construct: made in house; host or cells: HEK293 (transient transfection), unpurified extract
Sequence (Q92529 whole entry): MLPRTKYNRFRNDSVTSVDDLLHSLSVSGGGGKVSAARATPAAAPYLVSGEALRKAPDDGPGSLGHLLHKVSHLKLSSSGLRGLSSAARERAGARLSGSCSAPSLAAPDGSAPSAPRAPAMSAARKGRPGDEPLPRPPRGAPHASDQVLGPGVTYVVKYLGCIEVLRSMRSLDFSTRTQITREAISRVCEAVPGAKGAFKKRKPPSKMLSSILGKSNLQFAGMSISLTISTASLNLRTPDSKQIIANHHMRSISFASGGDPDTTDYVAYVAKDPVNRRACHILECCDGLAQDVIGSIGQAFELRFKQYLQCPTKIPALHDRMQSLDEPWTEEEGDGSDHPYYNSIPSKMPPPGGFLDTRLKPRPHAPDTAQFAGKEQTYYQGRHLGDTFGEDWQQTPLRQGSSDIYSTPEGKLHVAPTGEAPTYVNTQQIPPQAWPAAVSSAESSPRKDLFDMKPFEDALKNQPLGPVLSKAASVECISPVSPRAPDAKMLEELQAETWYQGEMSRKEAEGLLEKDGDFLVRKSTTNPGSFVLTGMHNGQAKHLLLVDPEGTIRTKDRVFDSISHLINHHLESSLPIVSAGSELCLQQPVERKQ
assay comment: biochemical
Format: binding
settings: read-out: percent of DMSO vehicle control
Non-standard residues stand in square brackets, D forms with d. Residues, ends and D or L forms follow the SMILES beside them. *: point of attachment. pY = N[C@@H](Cc1ccc(OP(=O)(O)O)cc1)C(=O)O; Caffeoyl = O=C(/C=C/c1ccc(O)c(O)c1)*
measurement kind: remaining activity at 10 µM (%)
Reply numerically in %, unit not repeated.

Use these answered entries as a reference point.
compound	result unit	assay result
CC[C@H](C)[C@H](NC(=O)[C@H](CCC(=O)O)NC(=O)[C@H](CCC(=O)O)NC(=O)[C@H](Cc1ccc(OP(=O)(O)O)cc1)NC(=O)/C=C/c1ccc(O)c(O)c1)C(=O)N[C@@H](CCC(=O)O)C(=O)O [Caffeic acid-pYEEIE] (Caffeoyl-[pY]EEIE-OH)	%	0
CC(=O)N[C@@H](Cc1ccc(CP(=O)(O)O)cc1)C(=O)NC1(C(=O)N[C@@H](CC(N)=O)C(=O)NCCCc2c(O)ccc3ccccc23)CCCCC1	%	29.2

**Q:** I would be grateful if you could share the reported remaining activity at 10 µM for NC(=O)CC[C@H](NC(=O)[C@@H]1CC[C@@H]2CCN(C(=O)CCCCCC#Cc3cccc4c3CN(C3CCC(=O)NC3=O)C4=O)C[C@H](NC(=O)c3cc4cc(C(F)(F)P(=O)(O)O)ccc4[nH]3)C(=O)N21)C(=O)NC(c1ccccc1)c1ccccc1 (stereo partly shown) .
**A:** 74.5

**Q:** Another compound: `CC(=O)N1CC[C@H]2CC[C@@H](C(=O)N[C@@H](CCC(N)=O)C(=O)NC(c3ccccc3)c3ccccc3)N2C(=O)[C@@H](NC(=O)c2cc3cc(C(F)(F)P(=O)(O)O)ccc3[nH]2)C1`
**A:** 122

---

target of assay: VAV3 (Homo sapiens, UniProt Q9UKW4)
Construct: made in house; host or cells: HEK293 (transient transfection), unpurified extract
Sequence (Q9UKW4 whole entry): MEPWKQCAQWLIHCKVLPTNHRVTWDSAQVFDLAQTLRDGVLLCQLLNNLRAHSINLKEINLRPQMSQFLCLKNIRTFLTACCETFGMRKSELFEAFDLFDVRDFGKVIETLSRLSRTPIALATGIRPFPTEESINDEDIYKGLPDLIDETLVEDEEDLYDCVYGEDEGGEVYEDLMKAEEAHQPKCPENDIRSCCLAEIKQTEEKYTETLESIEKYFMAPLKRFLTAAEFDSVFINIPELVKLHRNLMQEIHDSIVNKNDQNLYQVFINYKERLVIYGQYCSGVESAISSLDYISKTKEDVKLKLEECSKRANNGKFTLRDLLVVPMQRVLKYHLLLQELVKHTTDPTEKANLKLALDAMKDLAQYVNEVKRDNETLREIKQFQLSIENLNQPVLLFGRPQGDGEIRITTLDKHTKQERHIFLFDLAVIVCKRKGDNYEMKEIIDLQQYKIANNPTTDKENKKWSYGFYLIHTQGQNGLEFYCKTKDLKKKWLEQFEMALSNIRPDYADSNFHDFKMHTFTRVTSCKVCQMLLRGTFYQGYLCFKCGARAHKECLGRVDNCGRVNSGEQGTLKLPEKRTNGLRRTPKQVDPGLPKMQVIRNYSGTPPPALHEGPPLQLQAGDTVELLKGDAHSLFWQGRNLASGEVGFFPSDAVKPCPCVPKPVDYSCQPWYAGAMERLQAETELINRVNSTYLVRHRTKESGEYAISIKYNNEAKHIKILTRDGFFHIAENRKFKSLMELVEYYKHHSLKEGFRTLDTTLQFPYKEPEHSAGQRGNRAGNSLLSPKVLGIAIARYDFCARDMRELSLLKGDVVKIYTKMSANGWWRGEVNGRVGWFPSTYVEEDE
assay comment: biochemical
Type: binding
settings: primary screen, 10 μM; read-out: percent of DMSO vehicle control
measurement kind: remaining activity at 10 µM (%)
Reply numerically in %, unit not repeated.

Use these answered entries as a reference point.
C/C(=C\C(=O)N[C@H](C(=O)N1CCC[C@H]1C(=O)N(c1ccccc1)c1ccc(I)cc1)C(C)(C)C)c1ccc(OP(=O)(O)O)cc1 40.3
O=C(COc1ccc2cc(C(=O)Nc3ccccc3)ccc2c1)NCc1ccc(OP(=O)(O)O)c(OP(=O)(O)O)c1 102
O=C(CCl)Nc1cccc(CNC(=O)[C@H](Cc2ccc(OP(=O)(O)O)cc2)NC(=O)Cc2ccc(F)cc2)c1 113

Turning now to a further molecule:
**Q:** I would be grateful if you could share the reported remaining activity at 10 µM for `CC(C)(C)[C@H](NC(=O)/C=C/c1ccc(OP(=O)(O)O)cc1)C(=O)N1CCC[C@H]1C(=O)N(c1ccccc1)c1ccc(I)cc1` .
**A:** 76.8
